B1: ZNF263 (parent)
chain: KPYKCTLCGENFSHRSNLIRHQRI

Variants of: B1
Assay: protein stability index of a GFP-peptide fusion (GPS, HEK-293T) (PSI 1-6); higher = more stable;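 further: lentivirally expressed fusions sorted by FACS into six bins by GFP to DsRed ratio, PSI derived from sequencing read proportions per bin multiplied by bin number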
Conditions: c terminus: a fixed tail appended
Tick YES if protein stability index is 2 or greater. Tick NO if protein stability index is less than 2.

mut=N17T group=YES
mut=T6G group=YES
mut=F12Y group=NO
mut=I19D group=YES
mut=G9Y group=YES
mut=R15F group=YES
mut=S16N group=YES
mut=P2A group=YES
mut=R20M group=YES
mut=E10W group=YES
mut=H14T group=YES
mut=S13A group=YES
mut=K1L group=YES
mut=I24D group=YES
mut=E10D group=YES
mut=C8M group=NO
mut=C5K group=YES
mut=P2K group=YES
mut=N17V group=NO
mut=P2T group=YES
mut=I19Y group=YES
mut=R23I group=YES
mut=R15P group=YES
mut=C5S group=YES
mut=K4A group=YES
mut=S13P group=YES
mut=P2Q group=YES
mut=S16C group=YES
mut=C5R group=NO
mut=S13E group=YES
mut=R15E group=YES
mut=G9M group=YES
mut=H21W group=YES
mut=R15C group=YES
mut=Q22P group=NO
mut=I19V group=YES
mut=H21T group=YES
mut=E10M group=YES
mut=F12R group=NO
mut=R23W group=NO
mut=K1D group=YES
mut=N11L group=YES
mut=Y3R group=YES
mut=K1Y group=YES
mut=K1T group=YES
mut=H21D group=YES
mut=Y3P group=NO
mut=Q22F group=YES
mut=L7K group=YES
mut=P2L group=YES
mut=N17P group=NO
mut=G9R group=YES
mut=N11A group=YES
mut=P2I group=YES
mut=H14K group=YES
mut=R23P group=NO
mut=T6I group=YES
mut=F12D group=NO
mut=C5N group=YES
mut=K4E group=YES
mut=C5P group=YES
mut=N17C group=YES
mut=K1P group=YES
mut=R20K group=YES
mut=N11W group=YES
mut=I19H group=YES
mut=N11D group=YES
mut=S13V group=YES
mut=I24P group=YES
mut=G9P group=NO
mut=N11Q group=YES
mut=L7F group=YES
mut=R23C group=YES
mut=E10Y group=NO
mut=Y3H group=NO
mut=C5E group=YES
mut=I19E group=YES
mut=R23T group=NO
mut=L18D group=NO
mut=C8A group=YES
mut=K1H group=YES
mut=G9T group=NO
mut=R15I group=YES
mut=I24H group=YES
mut=I24C group=YES
mut=E10N group=YES
mut=I19Q group=YES
